tested on: VERPE; experiment: Post-emergence herbicidal action against VERPE; assay type: in vivo, Veronica persica; conditions: 20 g/ha
result type: Post-emergence action against VERPE in % (%)
Write down the numeric answer in % and omit the unit.

Query: # get_value(readout='Post-emergence action against VERPE in %', item= CC(NC(=O)c1c(C(F)(F)F)ccc(C(=O)Nc2nnnn2C)c1Cl)C1CC1 (centres unmarked) [Example 1-135] )
Result: 90

Query: # get_value(readout='Post-emergence action against VERPE in %', item= CCNC(=O)c1c(C(F)F)ccc(C(=O)Nc2nnnn2CC)c1C1CC1 [Example 2-305] )
Result: 90

Query: # get_value(readout='Post-emergence action against VERPE in %', item= Cc1c(C(=O)Nc2nnnn2C)ccc(C(F)F)c1C(=O)NCC1CC1 [Example 1-47] )
Result: 80

###

test system: VIOTR; assay: Pre-emergence herbicidal action against VIOTR; format: in vivo, Viola tricolor; details: Viola tricolor, 504 h, dosage 20 g/ha
result type: pest or weed control at 20 g/ha

Reference set, count: 6
# compound structure, pest or weed control at 20 g/ha
data = [
    ("CCn1nnnc1NC(=O)c1ccc(C(F)F)c(C(=O)NC2CC2)c1Cl", "100%"),
    ("CC(=O)NC(=O)c1c(C(F)(F)F)ccc(C(=O)Nc2nnnn2C)c1Cl", "80%"),
    ("CCNC(=O)c1c(I)ccc(C(=O)Nc2nnnn2CC)c1Cl", "90%"),
    ("Cc1nnc(NC(=O)c2ccc(C(F)(F)F)c(C(=O)NC(C)C)c2C)o1", "80%"),
    ("Cn1nnnc1NC(=O)c1ccc(Br)c(C(=O)NCC(F)(F)F)c1Cl", "100%"),
    ("CCNC(=O)c1c(C(F)(F)F)ccc(C(=O)Nc2nnnn2C)c1OC", "100%"),
]

Now for another entry.
Query: # get_value(readout='pest or weed control at 20 g/ha', item= CCc1c(C(=O)Nc2nnnn2C)ccc(C(F)(F)F)c1C(=O)NC )
Result: 100%

###

pest or weed control at 80 g/ha listing for selected compounds.
test system: ALOMY; test: Pre-emergence herbicidal action against ALOMY; assay type: in vivo, Alopecurus myosuroides; settings: Alopecurus myosuroides, 504 h; 80 g/ha, pre-emergence, scored visually after 3 weeks vs untreated controls (100% = plants have died, 0% = like control plants)
Write down the numeric answer in % and omit the unit.

# compound structure, measured result
rows = [
    ("Cn1nnnc1NC(=O)c1ccc(C(F)(F)F)c(C(=O)NC2CC2)c1Br", 80),
    ("CCn1nnnc1NC(=O)c1ccc(C(F)(F)F)c(C(N)=O)c1Cl", 90),
    ("CC(C)NC(=O)c1c(Br)ccc(C(=O)Nc2nnnn2C)c1Cl", 100),
    ("Cn1nnnc1NC(=O)c1ccc(Cl)c(C(=O)NC2CC2)c1Br", 100),
    ("Cc1c(C(=O)Nc2nnnn2C)ccc(C(F)(F)F)c1C(=O)NCC(F)(F)F", 100),
    ("CCn1nnnc1NC(=O)c1ccc(C(F)(F)F)c(C(=O)NC(C)C)c1C", 100),
    ("CCCNC(=O)c1c(C(F)(F)F)ccc(C(=O)Nc2nnnn2C)c1C", 100),
    ("CCNC(=O)c1c(Br)ccc(C(=O)Nc2nnnn2CC)c1Br", 100),
]

Now for another entry.
Query: # get_value(readout='pest or weed control at 80 g/ha', item= Cc1nnc(NC(=O)c2ccc(C(F)(F)F)c(C(=O)NC(C)C)c2C)o1 )
Result: 100

###

test system: SETVI; test: Post-emergence herbicidal action against SETVI; assay type: in vivo, Setaria viridis; conditions: Setaria viridis, 504 h, dosage 20 g/ha
pest or weed control at 20 g/ha listing for selected molecules.

Reference set, count: 6
# compound structure, pest or weed control at 20 g/ha
data = [
    ("CNC(=O)c1c(C(F)(F)C(F)(F)F)ccc(C(=O)Nc2nnnn2C)c1Cl", "90%"),
    ("CCCNC(=O)c1c(C(F)F)ccc(C(=O)Nc2nnnn2CC)c1C", "80%"),
    ("CCNC(=O)c1c(C(F)F)ccc(C(=O)Nc2nnnn2C)c1Br", "100%"),
    ("CCNC(=O)c1c(Br)ccc(C(=O)Nc2nnnn2CC)c1Cl", "90%"),
    ("CCNC(=O)c1c(C(F)(F)F)ccc(C(=O)Nc2nnnn2CC)c1C1CC1", "90%"),
    ("Cn1nnnc1NC(=O)c1ccc(C(F)(F)F)c(C(=O)NC2CC2)c1Br", "100%"),
]

Query: # get_value(readout='pest or weed control at 20 g/ha', item= CCn1nnnc1NC(=O)c1ccc(Cl)c(C(=O)NC2CC2)c1Cl )
Result: 100%

Query: # get_value(readout='pest or weed control at 20 g/ha', item= CNC(=O)c1c(C(F)F)ccc(C(=O)Nc2nnnn2C)c1SC )
Result: 90%

Query: # get_value(readout='pest or weed control at 20 g/ha', item= CCc1c(C(=O)Nc2nnnn2C)ccc(C(F)(F)F)c1C(=O)NC1CC1 )
Result: 100%

Query: # get_value(readout='pest or weed control at 20 g/ha', item= CCNC(=O)c1c(C(F)(F)F)ccc(C(=O)Nc2nnnn2C)c1SC )
Result: 90%

Query: # get_value(readout='pest or weed control at 20 g/ha', item= Cn1nnnc1NC(=O)c1ccc(C(F)F)c(C(=O)NCC(F)(F)F)c1Br )
Result: 90%

Query: # get_value(readout='pest or weed control at 20 g/ha', item= CCn1nnnc1NC(=O)c1ccc(C(F)(F)F)c(C(=O)NC2CC2)c1OC )
Result: 100%

Query: # get_value(readout='pest or weed control at 20 g/ha', item= CCCn1nnnc1NC(=O)c1ccc(C(F)(F)F)c(C(=O)NC)c1Cl )
Result: 100%

Query: # get_value(readout='pest or weed control at 20 g/ha', item= CNC(=O)c1c(Br)ccc(C(=O)Nc2nnnn2C)c1Br )
Result: 90%

Query: # get_value(readout='pest or weed control at 20 g/ha', item= CCn1nnnc1NC(=O)c1ccc(C(F)(F)F)c(C(=O)NC(C)C)c1C )
Result: 100%

Query: # get_value(readout='pest or weed control at 20 g/ha', item= CNC(=O)c1c(C(F)(F)F)ccc(C(=O)Nc2nnnn2C)c1C )
Result: 80%

Query: # get_value(readout='pest or weed control at 20 g/ha', item= CCn1nnnc1NC(=O)c1ccc(Br)c(C(=O)NC2CC2)c1Cl )
Result: 90%

Query: # get_value(readout='pest or weed control at 20 g/ha', item= CCNC(=O)c1c(C(F)F)ccc(C(=O)Nc2nnnn2C)c1SC )
Result: 90%

Query: # get_value(readout='pest or weed control at 20 g/ha', item= CCNC(=O)c1c(C(F)F)ccc(C(=O)Nc2nnnn2CC)c1CC )
Result: 90%

Query: # get_value(readout='pest or weed control at 20 g/ha', item= CCNC(=O)c1c(C(F)(F)F)ccc(C(=O)Nc2nnnn2C)c1C )
Result: 100%

Query: # get_value(readout='pest or weed control at 20 g/ha', item= CCNC(=O)c1c(Cl)ccc(C(=O)Nc2nnnn2C)c1Br )
Result: 80%

Query: # get_value(readout='pest or weed control at 20 g/ha', item= CCn1nnnc1NC(=O)c1ccc(C(F)(F)F)c(C(=O)NC)c1Cl )
Result: 100%

Query: # get_value(readout='pest or weed control at 20 g/ha', item= CCNC(=O)c1c(C(F)F)ccc(C(=O)Nc2nnnn2C)c1CC )
Result: 90%

Query: # get_value(readout='pest or weed control at 20 g/ha', item= CCNC(=O)c1c(C(F)(F)F)ccc(C(=O)Nc2nnnn2C)c1Cl )
Result: 80%

Query: # get_value(readout='pest or weed control at 20 g/ha', item= CCn1nnnc1NC(=O)c1ccc(C(F)(F)F)c(C(=O)NC2CC2)c1C )
Result: 100%

Query: # get_value(readout='pest or weed control at 20 g/ha', item= Cn1nnnc1NC(=O)c1ccc(Br)c(C(=O)NC2CC2)c1Cl )
Result: 90%

Query: # get_value(readout='pest or weed control at 20 g/ha', item= CNC(=O)c1c(Br)ccc(C(=O)Nc2nnnn2C)c1Cl )
Result: 90%

###

tested on: STEME; assay: Pre-emergence herbicidal action against STEME; assay type: in vivo, Stellaria media; details: Stellaria media, 504 h, dosage 20 g/ha
result type: pest or weed control at 20 g/ha (%)
Write down the numeric answer in % and omit the unit.

# compound structure, units symbol, measured result
measured = [
    ("CCn1nnnc1NC(=O)c1ccc(C(F)(F)F)c(C(=O)NC2CC2)c1Cl", "%", 100),
    ("CCNC(=O)c1c(C(F)(F)F)ccc(C(=O)Nc2nnnn2C)c1C", "%", 100),
    ("CCn1nnnc1NC(=O)c1ccc(C(F)(F)F)c(C(=O)NC2CC2)c1C", "%", 100),
    ("CNC(=O)c1c(C(F)F)ccc(C(=O)Nc2nnnn2C)c1SC", "%", 90),
]

Now for another entry.
Query: # get_value(readout='pest or weed control at 20 g/ha', item= CCn1nnnc1NC(=O)c1ccc(C(F)(F)F)c(C(=O)NC(C)=O)c1Cl )
Result: 90
